Data credit: patent US9650390B2

Examples of compounds with documented Solubility follow.
Settings: physiological saline
Measured quantity: Solubility

CC(=O)O[C@H]1C(=O)[C@]23C[C@H]2C[C@H]2OC[C@@]2(OC(C)=O)[C@H]3[C@H](OC(=O)c2ccccc2)[C@]2(O)C[C@H](OC(=O)[C@H](OC(=O)[C@H](F)CC(C)N(C)C)[C@@H](NC(=O)OC(C)(C)C)c3ccccc3)C(C)=C1C2(C)C.Cl (stereo partly shown): 800 µg/mL
CC(=O)O[C@@]12CO[C@@H]1C[C@H](O)[C@@]1(C)C(=O)[C@H](O)C3=C(C)[C@@H](OC(=O)[C@H](OC(=O)[C@H](F)CC(C)N(C)C)[C@@H](NC(=O)OC(C)(C)C)c4ccccc4)C[C@@](O)([C@@H](OC(=O)c4ccccc4)[C@H]21)C3(C)C.Cl (stereo partly shown): 2300 µg/mL
CC(=O)OC1C(=O)C23CC2CC2OCC2(OC(C)=O)C3C(OC(=O)c2ccccc2)C2(O)CC(OC(=O)C(OC(=O)C(F)CC(C)N(C)C)C(NC(=O)OC(C)(C)C)c3ccccc3)C(C)=C1C2(C)C.CS(=O)(=O)O (stereo not shown): 11100 µg/mL
CCN(C)C(C)C[C@H](C(=O)O[C@@H](C(=O)O[C@H]1C[C@@]2(O)[C@@H](OC(=O)c3ccccc3)[C@@H]3[C@]4(OC(C)=O)CO[C@@H]4C[C@H](O)[C@@]3(C)C(=O)[C@H](O)C(=C1C)C2(C)C)[C@@H](NC(=O)OC(C)(C)C)c1ccccc1)C(C)(F)F.CS(=O)(=O)O (stereo partly shown): 11300 µg/mL
